TESTED_TARGET: T1, ITGA2-His (human, UniProt P17301 30-1132, limits assumed)
T1 construct: also called ITGA2 protein; not shown: His tag
T1 sequence (looked up): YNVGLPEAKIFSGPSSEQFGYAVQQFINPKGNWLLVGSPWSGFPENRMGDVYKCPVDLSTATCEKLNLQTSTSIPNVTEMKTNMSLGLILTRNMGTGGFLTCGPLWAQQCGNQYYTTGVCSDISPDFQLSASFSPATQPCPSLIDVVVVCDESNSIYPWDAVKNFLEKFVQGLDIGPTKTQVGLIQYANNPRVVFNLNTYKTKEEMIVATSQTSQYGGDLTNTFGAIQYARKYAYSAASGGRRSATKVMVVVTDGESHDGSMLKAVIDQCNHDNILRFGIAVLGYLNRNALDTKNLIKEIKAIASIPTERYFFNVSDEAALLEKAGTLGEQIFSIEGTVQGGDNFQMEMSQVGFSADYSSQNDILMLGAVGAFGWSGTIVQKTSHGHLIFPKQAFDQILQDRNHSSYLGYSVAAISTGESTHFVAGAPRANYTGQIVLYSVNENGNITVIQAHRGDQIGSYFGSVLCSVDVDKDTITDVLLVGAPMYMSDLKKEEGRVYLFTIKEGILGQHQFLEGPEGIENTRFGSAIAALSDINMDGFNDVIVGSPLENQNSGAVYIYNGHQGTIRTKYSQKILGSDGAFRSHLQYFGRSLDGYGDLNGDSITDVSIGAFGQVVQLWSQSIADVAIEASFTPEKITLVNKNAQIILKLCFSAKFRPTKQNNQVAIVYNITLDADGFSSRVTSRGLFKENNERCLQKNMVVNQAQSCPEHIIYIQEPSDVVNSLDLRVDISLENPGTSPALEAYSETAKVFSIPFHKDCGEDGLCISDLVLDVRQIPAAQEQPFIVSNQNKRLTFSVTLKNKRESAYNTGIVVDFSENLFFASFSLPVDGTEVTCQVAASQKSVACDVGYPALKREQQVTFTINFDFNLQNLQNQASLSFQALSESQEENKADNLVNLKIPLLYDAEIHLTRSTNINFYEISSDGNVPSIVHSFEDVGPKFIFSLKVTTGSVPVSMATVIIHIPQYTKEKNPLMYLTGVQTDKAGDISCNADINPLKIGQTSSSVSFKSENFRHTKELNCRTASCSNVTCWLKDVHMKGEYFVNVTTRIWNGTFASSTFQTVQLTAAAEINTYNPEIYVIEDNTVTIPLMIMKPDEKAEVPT
ASSAY_PROTOCOL: ELISA, plate coated with 2 ug/mL ITGA2-His, anti-human IgG-Fc-HRP detection
This listing pairs binders with measured pEC50.
API: returns pEC50 as number; meaning -log10 of concentration in mol/L.

Below, 3 binders whose answers are already recorded.
{"BINDER": "Humanized antibody FS002-C417 (antibody, human IgG1, kappa, V domains shown, IgG1 heavy chain, kappa light chain) VH: EVQLVESGGVVVQPGGSLRLSCAASGFTFDDYTMHWVRQAPGKGLEWVSLISWDGGSTYYADSVKGRFTISRDNAKNTLYLQMNSLRAEDTAVYYCARDTGYAMDVWGQGTMVTVSS VL: NIQMTQSPSSLSASVGDRVTITCRASQSISSYLNWYQQKPGKAPKLLIYAASSLQSGVPSRFSGSGSGTDFTLTISSLQPEDFASYYCQQSYSSWAFGQGTKVEIKR", "RESULT_VALUE": 9.81}
{"BINDER": "Humanized antibody FS002-C11 (antibody, human IgG1, kappa, V domains shown, IgG1 heavy chain, kappa light chain) VH: RLQLQESGPRLVKPSETLSLTCSVSGGSISSRNHYWAWIRQPPGKGLEWIGYIYYSGSTYYNPSLKSRVTISVDTSKNQFSLKLSSVTAADTAVYYCARVGLLLRDFDYWGQGTLVTVSS VL: DIQMIQSPSSVSASVGDRVTITCRASQGISNSLAWYQHKPGTTPKLLIYAASSLQGGVPSRFSGSSSETDFTLTISSLQPEDFATYYCQQANSFPITFGQGTRLDIKR", "RESULT_VALUE": 10.46}
{"BINDER": "Humanized antibody FS002-C15 (antibody, human IgG1, kappa, V domains shown, IgG1 heavy chain, kappa light chain) VH: QLQLQESGPGLVKPSETLSLTCTVSGGSISSSSYYWGWIRQPPGKGLEWIGSIYYSGSTYYNPSLKSRVTISVDTSKNQFSLKLSSVTAADTAVYYCARLTIFGVVLYWGQGTLVTVSS VL: EIVLTQSPATLSLSPGERATLSCQASQTFSDYLAWYQQKPGQAPRLLIYDASTRATGIPARFSGSGSGTDFTLTISSLEPEDFAVYYCQQRSHWPPGYTFGQGTRVEIKR", "RESULT_VALUE": 10.36}

Turning now to a further binder:
**Query** Kindly indicate its recorded pEC50. Item: Vatelizumab (antibody, V domains shown) VH: QVQLQESGPGLVKPSETLSLTCTVSGFSLTNYGIHWIRQPPGKGLEWLGVIWARGFTNYNSALMSRLTISKDNSKNQVSLKLSSVTAADTAVYYCARANDGVYYAMDYWGQGTLVTVSS VL: DFVMTQSPAFLSVTPGEKVTITCSAQSSVNYIHWYQQKPDQAPKKLIYDTSKLASGVPSRFSGSGSGTDYTFTISSLEAEDAATYYCQQWTTNPLTFGQGTKVEIK
**Result** 10.64
